# study system: glutathione-S-transferase (GST) tagged LXRalpha LBD (ligand binding domain) (Homo sapiens)
# Construct: purchased Invitrogen pv4655
# test: LanthaScreen TR-FRET Liver X Receptor Coactivator Assay, co-activator recruitment to LXRalpha LBD
# Format: biochemical
# setup conditions: read-out: LXR alpha Activity @ max dose (%)
experimental readout: Emax (%)
Your answer should be a plain number; it is taken to be in %.

Below, each entry is followed by its recorded Emax result.
# compound, experimental readout, unit info, test value
rows = [
    ("COc1cccc([C@@](O)(C(=O)N2CCC(C(=O)N3CCN(c4ccc(C(=O)N(C)C)c(Cl)c4)CC3)CC2)C(F)(F)F)c1", "Emax", "%", 5),
    ("CN(C)C(=O)c1ccc(N2CCC(CC3CCN(C(=O)[C@](O)(c4ccccc4)C4CCCC4)CC3)CC2)nc1Cl", "Emax", "%", 19),
    ("CN(C)C(=O)c1ccc(N2CCC(CC3CCN(C(=O)C(O)(c4ccccc4)C4CCCCC4)CC3)CC2)nc1Cl (stereo not shown)", "Emax", "%", 4),
    ("Cc1cc(N2CCC(CC3CCN(C(=O)C(O)(c4cccc(Cl)c4)C(F)(F)F)CC3)CC2)ncc1C(=O)N(C)C (stereo not shown)", "Emax", "%", 19),
    ("COc1cccc([C@@](O)(C(=O)N2CCC(CC3CCN(c4ccc(C(=O)N(C)C)c(Cl)c4)CC3)CC2)C2CC2)c1", "Emax", "%", 6),
    ("CN(C)C(=O)c1ccc(N2CCC(CC3CCN(C(=O)C(O)(c4ccccc4)c4ccccc4)CC3)CC2)nc1Cl", "Emax", "%", 1),
]

Then there is this compound:
The reported Emax of the compound "CN(C)C(=O)c1ccc(N2CCC(SC3CCN(C(=O)[C@](O)(c4cccc(OC(F)(F)F)c4)C(F)(F)F)CC3)CC2)nc1Cl" was 21

----------
# study system: glutathione-S-transferase (GST) tagged LXRalpha LBD (ligand binding domain) (Homo sapiens, UniProt Q13133)
# Construct: purchased Invitrogen pv4655
# Sequence (Q13133 209-447 limits assumed): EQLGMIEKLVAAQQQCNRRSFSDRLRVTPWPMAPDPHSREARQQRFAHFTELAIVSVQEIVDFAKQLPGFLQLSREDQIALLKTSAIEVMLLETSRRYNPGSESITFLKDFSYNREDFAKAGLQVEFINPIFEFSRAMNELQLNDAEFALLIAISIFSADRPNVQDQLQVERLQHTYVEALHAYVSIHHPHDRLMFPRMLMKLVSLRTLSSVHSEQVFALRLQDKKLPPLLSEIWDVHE
# test: LanthaScreen TR-FRET Liver X Receptor Coactivator Assay, co-activator recruitment to LXRalpha LBD
# Type: biochemical
# setup conditions: efficacy at max dose, in relation to reference dual agonist T0901317; read-out: LXR alpha Activity @ max dose (%)
Decide by Emax: equal to or exceeding 10% means T, less means F.

Please review the following examples before continuing.
# molecule, label
records = [
    ("CN(C)C(=O)c1ccc(N2CCC(CC3CCN(C(=O)[C@](O)(c4cccc(OC(F)F)c4)C(F)(F)F)CC3)CC2)cc1Cl [Example 2-116]", "T"),
    ("CNC(=O)c1ccc(N2CCC(CC3CCN(C(=O)[C@](O)(c4cccc(OC(C)C)c4)C(F)(F)F)CC3)CC2)cc1Cl [Example 7-121]", "T"),
    ("CCOc1cccc([C@@](O)(C(=O)N2CCC(CC3CCN(c4ccc(C(=O)N(C)C)c(Cl)n4)CC3)CC2)C(F)(F)F)c1 [Example 7-92]", "F"),
]

Determine whether measured Emax meets or exceeds 10% for NC(=O)c1ccc(N2CCC(CC3CCN(C(=O)[C@](O)(c4cc(Cl)cc(Cl)c4)C(F)(F)F)CC3)CC2)cc1Cl [Example 12-1]
F

Determine whether measured Emax meets or exceeds 10% for CN(C)C(=O)c1ccc(N2CCC(CC3(C)CCN(C(=O)[C@](O)(c4cc(F)cc(Cl)c4)C(F)(F)F)CC3)CC2)cc1Cl [Example 2-54]
T

Determine whether measured Emax meets or exceeds 10% for CN(C)C(=O)c1ccc(N2CCC(OC3CCN(C(=O)C(O)(c4cccc(Cl)c4)C(F)(F)F)CC3)CC2)cc1Cl (stereo not shown) [Example 2-24]
T

Determine whether measured Emax meets or exceeds 10% for CN(C)C(=O)c1ccc(N2CCC(CC3CCN(C(=O)C(O)(c4cccnc4)C(F)(F)F)CC3)CC2)nc1Cl (stereo not shown) [Example 7-66]
T
